Measured GI50 values are reported for all entries that follow.
- System: MDA-MB-435
- test details: Growth inhibition of human MDA-MB-435 cells after 48 hrs by sulforhodamine B assay
- Format: functional
- details: MDA-MB-435, 48 h
Form entry: value (µM) — number only.

The cases that follow already have their GI50 on record.
[[record]]
cpd_smiles = "CCCCCCCCCCCCO[C@@H]1O[C@@H](C)[C@H](O[C@@H]2O[C@@H](C)[C@H](OC(C)=O)[C@@H](O[C@@H]3O[C@@H](C)[C@H](OC(C)=O)[C@@H](O)[C@H]3OC(C)=O)[C@H]2O)[C@@H](O)[C@H]1O"
numeric_readout = 7.68

[[record]]
cpd_smiles = "CCCCCCCCCCCCO[C@@H]1O[C@@H](C)[C@H](O[C@@H]2O[C@@H](C)[C@H](OC(C)=O)[C@@H](O[C@@H]3O[C@@H](C)[C@H](O)[C@@H](O[C@@H]4O[C@@H](C)[C@H](OC(C)=O)[C@@H](OC(C)=O)[C@H]4OC(C)=O)[C@H]3OC(C)=O)[C@H]2O)[C@@H](O)[C@H]1O"
numeric_readout = 0.84

[[record]]
cpd_smiles = "CCCCCCCCCCCCO[C@@H]1O[C@@H](C)[C@H](O[C@@H]2O[C@@H](C)[C@H](OC(C)=O)[C@@H](O[C@@H]3O[C@@H](C)[C@H](OC(C)=O)[C@@H](O[C@@H]4O[C@@H](C)[C@H](OC(C)=O)[C@@H](OC(C)=O)[C@H]4OC(C)=O)[C@H]3OC(C)=O)[C@H]2O)[C@@H](O)[C@H]1O"
numeric_readout = 0.88

[[record]]
cpd_smiles = "CCCCCCCCCCCCO[C@@H]1O[C@@H](C)[C@H](O[C@@H]2O[C@@H](C)[C@H](OC(C)=O)[C@@H](O[C@@H]3O[C@@H](C)[C@H](OC(C)=O)[C@@H](O[C@@H]4O[C@@H](C)[C@H](OC(C)=O)[C@@H](O)[C@H]4OC(C)=O)[C@H]3OC(C)=O)[C@H]2O)[C@@H](O)[C@H]1O"
numeric_readout = 0.83

[[record]]
cpd_smiles = "CCCCCCCCCCCCO[C@@H]1O[C@@H](C)[C@H](O[C@@H]2O[C@@H](C)[C@H](OC(C)=O)[C@@H](O[C@@H]3O[C@@H](C)[C@H](OC(C)=O)[C@@H](O[C@@H]4O[C@@H](C)[C@H](O)[C@@H](O)[C@H]4OC(C)=O)[C@H]3OC(C)=O)[C@H]2O)[C@@H](O)[C@H]1O"
numeric_readout = 7.25

[[record]]
cpd_smiles = "CCCCCCCCCCCCO[C@@H]1O[C@@H](C)[C@H](O[C@@H]2O[C@@H](C)[C@H](OC(C)=O)[C@@H](O[C@@H]3O[C@@H](C)[C@H](O)[C@@H](OC(C)=O)[C@H]3OC(C)=O)[C@H]2O)[C@@H](O)[C@H]1O"
numeric_readout = 1.49


Input line: Which GI50 value belongs to CCCCCCCCCCCCO[C@@H]1O[C@@H](C)[C@H](O[C@@H]2O[C@@H](C)[C@H](OC(C)=O)[C@@H](O[C@@H]3O[C@@H](C)[C@H](OC(C)=O)[C@@H](O[C@@H]4O[C@@H](C)[C@H](OC(C)=O)[C@@H](O)[C@H]4O)[C@H]3OC(C)=O)[C@H]2O)[C@@H](O)[C@H]1O ?
Output line: 6
